Values compiled from PubChem BioAssay (Tox21).

Experiment: qHTS RealTime-Glo MT Cell Viability Assay in HepG2 cells - 32 hour (AID 1224877); note: nearly all actives have a fitted effect of over 55% in size
Conditions: RealTime-Glo luminescence; series mostly up to 76.8 µM
Inconclusive results are not listed. Active and inactive are the calls of the source. Calls come from the whole dose curve; as a rule, active = well fitted cell-killing curve with a large enough effect in the repeat runs; inconclusive = weak or mixed curves; inactive = flat fitted curve, though single readings scatter.
Return exactly one item of T (active), F (inactive)

Please state the recorded outcome for this molecule: `CCNC(=O)N1CCN(CCCC(c2ccc(F)cc2)c2ccc(F)cc2)CC1`
F

What do we get for CCC1(C)CC(=O)NC1=O (stereo unspecified) ?
F

What do we get for `N#C/C(=C1/SC[C@@H](c2ccc(Cl)cc2Cl)S1)n1ccnc1` ?
F

What do we get for `CCCCCCCC/C=C\CCCCCCCC(=O)OC` ?
F

What do we get for `O=C(O)c1snc(Cl)c1Cl` ?
F

What do we get for Fc1ccccc1[C@@H](F)COC1CCC(Nc2ncnc3[nH]ncc23)CC1 (stereo partly specified) ?
F

What do we get for `Nc1c(I)cc(I)c(C(=O)N(CCC(=O)O)c2ccccc2)c1I` ?
F

What do we get for `COc1cc2c(cc1OC)-c1cc(=Nc3c(C)cc(C)cc3C)n(C)c(=O)n1CC2` ?
F

What do we get for CCC(C(=O)OCCN(CC)CC)c1ccccc1 (stereo unspecified) ?
F

What do we get for CC1CC(O)CC(C)(C)C1 (stereo unspecified) ?
F

What do we get for `CCCCCCCCCCCCCCC[C@H](O)[C@@H](N)CO` ?
T

What do we get for `CCCCCCCCCCCC(=O)[O][Sn]([CH2]CCC)([CH2]CCC)[O]C(=O)CCCCCCCCCCC` ?
T

What do we get for `Cc1cc(OI)c(C(C)C)cc1-c1cc(C(C)C)c(OI)cc1C` ?
F

What do we get for CC(CCc1ccc2c(c1)OCO2)NN (stereo unspecified) ?
F

What do we get for `Oc1cc(O)c(Cl)cc1Cl` ?
F

What do we get for `CC(=O)Nc1ccccc1C` ?
F

What do we get for `CC(=O)Nc1ccc(N)cc1` ?
F

What do we get for `O=C(c1ccc(O)cc1)c1ccc(Cl)cc1` ?
F

What do we get for CC(C)(C)C(=O)C(Oc1ccc(Cl)cc1)n1ccnc1 (stereo unspecified) ?
F

What do we get for `CC(C)(O)c1ccccc1CC[C@@H](SCC1(CC(=O)O)CC1)c1cccc(/C=C/c2ccc3ccc(Cl)cc3n2)c1` ?
F

What do we get for `CC(C)=CC=O` ?
F

What do we get for `O=C(/C=C/c1ccccc1)OCCCc1ccccc1` ?
F

What do we get for `CCCCCCCCCOC(C)=O` ?
F

What do we get for COCC(O)CO (stereo unspecified) ?
F

What do we get for `C=CCNc1nc(NCC=C)nc(N2CCN(C(c3ccc(F)cc3)c3ccc(F)cc3)CC2)n1` ?
F

What do we get for `CC(C)c1nnc2ccc(-c3ocnc3-c3cc(F)ccc3F)cn12` ?
F

###

Target: Aromatase (Homo sapiens)
Assay: qHTS assay to identify aromatase inhibitors (AID 743083); note: nearly all actives have a fitted effect of over 55% in size
Details: MCF-7 aro ERE, testosterone-driven ERE luciferase, 24 h; series mostly up to 70.3 µM
Inconclusive results are not listed. Activity calls are given as the source filed them. Calls follow the shape of the dose curve; as a rule, active = well fitted inhibition curve with a large enough effect in the repeat runs; inconclusive = weak or mixed curves; inactive = no such curve, though single readings can be large or run the other way.
Return exactly one item of active, inactive

Please state the recorded outcome for this compound: CC(C)OCC1CO1 (stereo unspecified)
inactive

What do we get for `Cc1nccn1-c1ccc(Sc2cccc(C3(C(N)=O)CCOCC3)c2)cc1` ?
active

What do we get for `O=Cc1c(Cl)cccc1Cl` ?
inactive

What do we get for `CCOC(=O)/C=C/C(=O)O` ?
inactive

What do we get for CC(=O)CC(c1ccc([N+](=O)[O-])cc1)c1c(O)c2ccccc2oc1=O (stereo unspecified) ?
inactive

What do we get for `CC(C)(O)c1ccccc1CC[C@@H](SCC1(CC(=O)O)CC1)c1cccc(/C=C/c2ccc3ccc(Cl)cc3n2)c1` ?
inactive

What do we get for `CCCCCCCCCOC(C)=O` ?
inactive

What do we get for `CN1CCN(c2c(F)cc3c(=O)c(C(=O)O)cn4c3c2OCN4C)CC1` ?
inactive

What do we get for `O=C(O)c1ccc(CO)o1` ?
inactive

What do we get for `CC[C@@H]([C@H](C)O)n1ncn(-c2ccc(N3CCN(c4ccc(OC[C@@H]5CO[C@@](Cn6cncn6)(c6ccc(F)cc6F)C5)cc4)CC3)cc2)c1=O` ?
inactive

What do we get for `Cc1cc(O)c2c(O)c3c(O)cccc3cc2c1` ?
inactive

What do we get for `CCCOCCOCCO` ?
inactive

What do we get for CC(N)CN (stereo unspecified) ?
inactive

What do we get for `O=C(O)c1cccc(O)c1` ?
inactive

What do we get for CCOc1cc(N)c(Cl)cc1C(=O)NCC1CN(Cc2ccc(F)cc2)CCO1 (stereo unspecified) ?
inactive

What do we get for `Brc1cc(-c2ccc(Br)c(Br)c2Br)cc(Br)c1Br` ?
inactive

What do we get for `CN1CCCN=C1/C=C/c1cccs1` ?
inactive

What do we get for `O=C(Nc1ccccc1)Nc1ccccc1` ?
inactive

What do we get for `CC(=O)OCC(=O)[C@@]12OC(C)(C)O[C@@H]1C[C@H]1[C@@H]3C[C@H](F)C4=CC(=O)C=C[C@]4(C)[C@@]3(F)[C@@H](O)C[C@@]12C` ?
inactive

What do we get for `O=C(CS)OCCOC(=O)CS` ?
inactive

What do we get for `CN1CCN(CCCN2c3ccccc3Sc3ccc(S(=O)(=O)N(C)C)cc32)CC1` ?
inactive

What do we get for `CCCCCCCCCCCC[N+](C)(C)CC(=O)[O-]` ?
inactive

What do we get for `CC[C@H](NC(=O)c1cc(F)ccc1NS(=O)(=O)c1cccc2cccnc12)c1ccccc1` ?
inactive

What do we get for `Cc1ccc(S(=O)(=O)NC2CCCCC2)cc1` ?
inactive

What do we get for `O=S1OCCO1` ?
inactive

What do we get for `CCCCCCCCCCOS(=O)(=O)O` ?
inactive

What do we get for `CCCCCCCC/C=C\CCCCCCCC(=O)OC` ?
inactive

What do we get for CC(C)(C)C(=O)C(Oc1ccc(Cl)cc1)n1ccnc1 (stereo unspecified) ?
active

What do we get for `OC/C(Br)=C(\Br)CO` ?
inactive

What do we get for `CC1=NN(c2ccc(C(=O)O)cc2)C(=O)C1` ?
inactive

What do we get for `C1COCO1` ?
inactive

What do we get for `OC(CCCN1CCCCC1)(c1ccccc1)c1ccccc1` ?
inactive

What do we get for `NC(=O)Cn1c(=O)cc(CCN2CCN(c3nccc4sccc34)CC2)c2ccc(F)cc21` ?
inactive

What do we get for `c1cc[c]([Bi]([c]2ccccc2)[c]2ccccc2)cc1` ?
inactive

What do we get for C=CC(C)(O)CCCC(C)CCCC(C)CCCC(C)C (stereo unspecified) ?
inactive

What do we get for `Cc1oncc1C(=O)Nc1ccc(C(F)(F)F)cc1` ?
inactive

What do we get for `O=C(OCCOCCO)c1ccccc1Nc1cccc(C(F)(F)F)c1` ?
inactive

What do we get for `CCCCCC=CCC=CCCCCCCCC(=O)OCC` ?
inactive

What do we get for `CC1=C(C=O)C(C)(C)CCC1` ?
inactive

What do we get for CCC(C)(O)CCC=C(C)C (stereo unspecified) ?
inactive

What do we get for `CC(=O)[C@H]1CC[C@H]2[C@@H]3C[C@H](C)C4=CC(=O)CC[C@]4(C)[C@H]3[C@@H](O)C[C@]12C` ?
inactive

What do we get for `COC(=O)Nc1nc2ccc(C(=O)c3cccs3)cc2[nH]1` ?
inactive

What do we get for `CC(=O)OCC(=O)[C@H]1CC[C@H]2[C@@H]3CCC4=CC(=O)CC[C@]4(C)[C@H]3CC[C@]12C` ?
inactive

What do we get for `Cc1c(C(=O)NN2CCCCC2)nn(-c2ccc(Cl)cc2Cl)c1-c1ccc(Cl)cc1` ?
inactive

What do we get for `O=C(/C=C/c1ccccc1)OCCCc1ccccc1` ?
inactive

What do we get for `NC(=O)Nc1ccc(Cl)cc1` ?
inactive

What do we get for `CCCCCCCC/C=C\CCCCCCCC(=O)OC(CO)CO` ?
inactive

What do we get for `C=CC(=O)NCOCC(C)C` ?
inactive

What do we get for `O=C(O)c1cccnc1C(=O)O` ?
inactive

What do we get for `C=CC(C)=CCC=C(C)C` ?
inactive

What do we get for `CC(=O)Nc1ccc(N)cc1` ?
inactive
